Test system: Staphylococcus aureus ATCC 6538P
TEST_DESCRIPTION: MIC, Staphylococcus aureus ATCC 6538P (SA(1))
Format: cell-based
TEST_PARAMETERS: Staphylococcus aureus, ATCC6538P, Staphylococcus aureus ATCC 6538P; read-out: MIC SA (1)
READOUT_TYPE: MIC

[[record]]
compound = "CCC1OC(=O)C(C)C(OC2CC(C)(OC)C(O)C(C)O2)C(C)C(OC2OC(C)CC(N(CC)CC)C2O)C2(C)CC(C)=C(O2)C(C)C(O)C1(C)O (stereo not drawn) [Compound 20]"
reported_value = "> 100 µg/mL"

[[record]]
compound = "C=CC[N+](C)(C)C1CC(C)OC(OC2C(C)C(OC3CC(C)(OC)C(O)C(C)O3)C(C)C(=O)OC(CC)C(C)(O)C(O)C(C)C3=C(C)CC2(C)O3)C1O (stereo not drawn) [Compound 16]"
reported_value = "100 µg/mL"

[[record]]
compound = "CCC1OC(=O)C(C)C(OC2CC(C)(OC)C(O)C(C)O2)C(C)C(OC2OC(C)CC([N+](C)(C)C)C2O)C2(C)CC(C)=C(O2)C(C)C(O)C1(C)O (stereo not drawn) [Compound 1]"
reported_value = "> 100 µg/mL"


----------
Tested on: Staphylococcus aureus FDA 209P
TEST_DESCRIPTION: MIC, Staphylococcus aureus FDA 209P (SA(2))
Format: cell-based
TEST_PARAMETERS: Staphylococcus aureus, FDA209P, Staphylococcus aureus FDA 209P; read-out: MIC SA (2)
Property: MIC; scope: individual compounds
READOUT_TYPE: MIC (µg/mL)

[[record]]
compound = "CCC1OC(=O)C(C)C(OC2CC(C)(OC)C(O)C(C)O2)C(C)C(OC2OC(C)CC([N+](C)(C)CCO)C2O)C2(C)CC(C)=C(O2)C(C)C(O)C1(C)O (stereo not drawn)"
readout_type = "MIC"
result_comparator = ">"
reported_value = 100

[[record]]
compound = "C#CC[N+](C)(CC=C)C1CC(C)OC(OC2C(C)C(OC3CC(C)(OC)C(O)C(C)O3)C(C)C(=O)OC(CC)C(C)(O)C(O)C(C)C3=C(C)CC2(C)O3)C1O (stereo not drawn)"
readout_type = "MIC"
result_comparator = "="
reported_value = 100

[[record]]
compound = "C#CC[N+](C)(CC#C)C1CC(C)OC(OC2C(C)C(OC3CC(C)(OC)C(O)C(C)O3)C(C)C(=O)OC(CC)C(C)(O)C(O)C(C)C3=C(C)CC2(C)O3)C1O (stereo not drawn)"
readout_type = "MIC"
result_comparator = "="
reported_value = 100

[[record]]
compound = "C#CC[N+](C)(C)[C@H]1C[C@@H](C)O[C@@H](O[C@@H]2[C@@H](C)[C@H](O[C@H]3C[C@@](C)(OC)[C@@H](O)[C@H](C)O3)[C@@H](C)C(=O)O[C@H](CC)[C@@](C)(O)[C@H](O)[C@@H](C)C3O[C@]2(C)CC3C)[C@@H]1OC(C)=O (stereo partly drawn)"
readout_type = "MIC"
result_comparator = ">"
reported_value = 100

[[record]]
compound = "CC[C@H]1OC(=O)[C@H](C)[C@@H](O[C@H]2C[C@@](C)(OC)[C@@H](O)[C@H](C)O2)[C@H](C)[C@@H](O[C@@H]2O[C@H](C)C[C@H]([N+](C)(C)CC)[C@H]2O)[C@](C)(O)C[C@@H](C)C(=O)[C@H](C)[C@@H](O)[C@]1(C)O"
readout_type = "MIC"
result_comparator = "="
reported_value = 12.5

[[record]]
compound = "CC[C@H]1OC(=O)[C@H](C)[C@@H](O[C@H]2C[C@@](C)(OC)[C@@H](O)[C@H](C)O2)[C@H](C)[C@@H](O[C@@H]2O[C@H](C)C[C@H]([N+](C)(C)C)[C@H]2O)[C@@]2(C)CC(C)C(O2)[C@H](C)[C@@H](O)[C@]1(C)O (stereo partly drawn)"
readout_type = "MIC"
result_comparator = ">"
reported_value = 100

[[record]]
compound = "CCCC[N+](C)(C)[C@H]1C[C@@H](C)O[C@@H](O[C@@H]2[C@@H](C)[C@H](O[C@H]3C[C@@](C)(OC)[C@@H](O)[C@H](C)O3)[C@@H](C)C(=O)O[C@H](CC)[C@@](C)(O)[C@H](O)[C@@H](C)C3O[C@]2(C)CC3C)[C@@H]1O (stereo partly drawn)"
readout_type = "MIC"
result_comparator = "="
reported_value = 100

[[record]]
compound = "CCC1OC(=O)C(C)C(OC2CC(C)(OC)C(O)C(C)O2)C(C)C(OC2OC(C)CC(N(C)CC)C2O)C2(C)CC(C)=C(O2)C(C)C(O)C1(C)O (stereo not drawn)"
readout_type = "MIC"
result_comparator = ">"
reported_value = 100

[[record]]
compound = "CCCC[N+](C)(C)C1CC(C)OC(OC2C(C)C(OC3CC(C)(OC)C(O)C(C)O3)C(C)C(=O)OC(CC)C(C)(O)C(O)C(C)C3=C(C)CC2(C)O3)C1O (stereo not drawn)"
readout_type = "MIC"
result_comparator = "="
reported_value = 100


----------
Tested on: Staphylococcus aureus ATCC 6538P
TEST_DESCRIPTION: MIC, Staphylococcus aureus ATCC 6538P (SA(1))
Format: cell-based
TEST_PARAMETERS: Staphylococcus aureus, ATCC6538P, Staphylococcus aureus ATCC 6538P; read-out: MIC SA (1)
Property: MIC; scope: individual molecules
READOUT_TYPE: MIC (µg/mL)

[[record]]
molecule = "CCC1OC(=O)C(C)C(OC2CC(C)(OC)C(O)C(C)O2)C(C)C(OC2OC(C)CC([N+](C)(C)C)C2OC(C)=O)C2(C)CC(C)=C(O2)C(C)C(O)C1(C)O (stereo not shown) [Compound 7]"
readout_type = "MIC"
result_comparator = "="
reported_value = 100

[[record]]
molecule = "CCC1OC(=O)C(C)C(OC2CC(C)(OC)C(O)C(C)O2)C(C)C(OC2OC(C)CC(N)C2O)C2(C)CC(C)=C(O2)C(C)C(O)C1(C)O (stereo not shown) [Compound 9]"
readout_type = "MIC"
result_comparator = ">"
reported_value = 100

[[record]]
molecule = "C#CC[N+](CC=C)(CC=C)C1CC(C)OC(OC2C(C)C(OC3CC(C)(OC)C(O)C(C)O3)C(C)C(=O)OC(CC)C(C)(O)C(O)C(C)C3=C(C)CC2(C)O3)C1O (stereo not shown) [Compound 47]"
readout_type = "MIC"
result_comparator = "="
reported_value = 100

[[record]]
molecule = "CCCN(C)C1CC(C)OC(OC2C(C)C(OC3CC(C)(OC)C(O)C(C)O3)C(C)C(=O)OC(CC)C(C)(O)C(O)C(C)C3=C(C)CC2(C)O3)C1O (stereo not shown) [Compound 36]"
readout_type = "MIC"
result_comparator = ">"
reported_value = 100


----------
System: Staphylococcus aureus ATCC 6538P
TEST_DESCRIPTION: MIC, Staphylococcus aureus ATCC 6538P (SA(1))
Assay type: cell-based
TEST_PARAMETERS: Staphylococcus aureus, ATCC6538P, Staphylococcus aureus ATCC 6538P; read-out: MIC SA (1)
Property: MIC; scope: individual compounds
READOUT_TYPE: MIC

[[record]]
compound = "C#CCNC1CC(C)OC(OC2C(C)C(OC3CC(C)(OC)C(O)C(C)O3)C(C)C(=O)OC(CC)C(C)(O)C(O)C(C)C3=C(C)CC2(C)O3)C1O (stereo not drawn)"
reported_value = "> 100 µg/mL"

[[record]]
compound = "CC[C@H]1OC(=O)[C@H](C)[C@@H](O[C@H]2C[C@@](C)(OC)[C@@H](OC=O)[C@H](C)O2)[C@H](C)[C@@H](O[C@@H]2O[C@H](C)C[C@H]([N+](C)(C)C)[C@H]2O)[C@@]2(C)CC(C)=C(O2)[C@H](C)[C@@H](O)[C@]1(C)O"
reported_value = "> 100 µg/mL"

[[record]]
compound = "C#CC[N+](C)(C)[C@H]1C[C@@H](C)O[C@@H](O[C@@H]2[C@@H](C)[C@H](O[C@H]3C[C@@](C)(OC)[C@@H](O)[C@H](C)O3)[C@@H](C)C(=O)O[C@H](CC)C(C)[C@H](O)[C@@H](C)C3=C(C)C[C@@]2(C)O3)[C@@H]1O (stereo partly drawn)"
reported_value = "100 µg/mL"

[[record]]
compound = "CCNC1CC(C)OC(OC2C(C)C(OC3CC(C)(OC)C(O)C(C)O3)C(C)C(=O)OC(CC)C(C)(O)C(O)C(C)C3=C(C)CC2(C)O3)C1O (stereo not drawn)"
reported_value = "> 100 µg/mL"

[[record]]
compound = "CCC1OC(=O)C(C)C(OC2CC(C)(OC)C(O)C(C)O2)C(C)C(OC2OC(C)CC([N+](C)(C)C)C2O)C2(C)CC(C)=C(O2)C(C)C(OS(C)(=O)=O)C1(C)O (stereo not drawn)"
reported_value = "> 100 µg/mL"

[[record]]
compound = "CC[C@H]1OC(=O)[C@H](C)[C@@H](O[C@H]2C[C@@](C)(OC)[C@@H](O)[C@H](C)O2)[C@H](C)[C@@H](O[C@@H]2O[C@H](C)C[C@H]([N+](C)(C)Cc3ccccc3)[C@H]2O)[C@@]2(C)CC(C)C3(O[C@@]1(C)[C@H](O)[C@H]3C)O2 (stereo partly drawn)"
reported_value = "> 100 µg/mL"

[[record]]
compound = "C#CC[N+](C)(C)[C@H]1C[C@@H](C)O[C@@H](O[C@@H]2[C@@H](C)[C@H](O[C@H]3C[C@@](C)(OC)[C@@H](O)[C@H](C)O3)[C@@H](C)C(=O)O[C@H](CC)[C@@](C)(O)[C@H](O)[C@@H](C)C(=O)[C@H](C)C[C@@]2(C)O)[C@@H]1O"
reported_value = "12.5 µg/mL"

[[record]]
compound = "C#CC[N+](C)(C)C1CC(C)OC(OC2C(C)C(OC3CC(C)(OC)C(O)C(C)O3)C(C)C(=O)OC(CC)C3(C)OC(C)(C)OC3C(C)C3=C(C)CC2(C)O3)C1O (stereo not drawn)"
reported_value = "12.5 µg/mL"

[[record]]
compound = "C#CC[N+](C)(C)[C@H]1C[C@@H](C)O[C@@H](O[C@@H]2[C@@H](C)[C@H](O[C@H]3C[C@@](C)(OC)[C@@H](O)[C@H](C)O3)[C@@H](C)C(=O)O[C@H](CC)[C@@](C)(O)[C@H](O)[C@@H](C)C3O[C@]2(C)CC3C)[C@@H]1OC(C)=O (stereo partly drawn)"
reported_value = "> 100 µg/mL"

